assay: small-molecule binders of probe aLefty1, primary screen, biochemical, small-molecule microarray, 635/667 nm fluorescence (AID 1153);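 also: score merges spot fluorescence with signal-to-noise ratio from the scanned slide images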
test context: higher = more signal

compound | composite z-score
C#CCCCON=C1C[C@@H](O)[C@@H](O)[C@@H]2[C@@H]3C(=O)N(C[C@@H]4CCCO4)C(=O)[C@@H]3CC[C@H]12 | -0.293
COc1ccc(OC[C@H]2CN3[C@@H](CC[C@@H](C)[C@@H]3c3ccc(Br)cc3)C(=O)O2)cc1 | 0.0861
COc1ccc(O[C@H]2C=C[C@@H](c3ccccc3)O[C@@H]2CON=C2c3cc(OC)ccc3O[C@H](c3cccc(OC)c3)[C@H]2O)cc1 | -0.237
COC(=O)[C@@H]1CC[C@H](C)[C@@H](c2ccc(C)cc2)N1C(=O)c1ccc(C=NOC[C@H]2O[C@H](c3ccccc3)C=C[C@@H]2Oc2ccc(OC)cc2)cc1 | -0.0236
CCOC(=O)CCN1C(=O)[C@H]2[C@H]3[C@H](O)[C@H](O)CC(=NO[C@@H]4O[C@H](CO)[C@@H](O)[C@H](O)[C@H]4O)[C@H]3CC[C@H]2C1=O | 0.493
CCOC(=O)[C@H](Cc1ccccc1)NC(=O)CCC1CC(OC(=O)NCCc2ccc(F)cc2)CC2(CCCC(COC(=O)NCCOc3ccccc3)O2)O1 (some centres not stated) | 0.0594
COC(=O)[C@H](C)NC(=O)CCC1CC(OC(=O)NCCc2ccc(F)cc2)CC2(CCCC(COC(=O)NCCOc3ccccc3)O2)O1 (some centres not stated) | 0.0169

----------
assay target: Calmodulin-1 (Homo sapiens)
assay: calcium-bound CALM1 binders on microarrays, profiling panel, artefact control for SMM control-protein annotation, biochemical, small-molecule microarray, Cy5-labelled CALM1, plus calcium (AID 1112);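 also: score merges spot fluorescence with signal to noise from triplicate slides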
test context: Cy5-CALM1 binding fluorescence, higher = more signal
Values of composite z-score greater than or equal to -0.8 map to rule met; values below map to rule not met.

molecule | assay target | assigned category
CC1(C)O[C@H]2OC([C@H](O)CON3C(=O)c4ccccc4C3=O)[C@H](O)[C@H]2O1 (stereo not given in full) | Calmodulin-1 (Homo sapiens) | rule met
C#CCCCON=C1C[C@@H](O)[C@@H](O)[C@@H]2[C@@H]3C(=O)N(C4CCCCC4)C(=O)[C@@H]3CC[C@@H]12 | Calmodulin-1 (Homo sapiens) | rule met
CCN1C(=O)[C@H]2[C@H]3[C@H](O)[C@H](O)CC(=NOC[C@@H](O)COCc4ccco4)[C@H]3CC[C@H]2C1=O | Calmodulin-1 (Homo sapiens) | rule not met
CCOC(=O)[C@H](Cc1ccccc1)NC(=O)CCC1CC(OC(=O)NCc2ccc3c(c2)OCO3)CC2(CCCC(COC(=O)NCCc3ccc(Cl)cc3)O2)O1 (stereo not given in full) | Calmodulin-1 (Homo sapiens) | rule met
CCOC(=O)NN=C1C[C@@H](O)[C@@H](O)[C@@H]2[C@@H]3C(=O)N(CC)C(=O)[C@@H]3CC[C@H]12 | Calmodulin-1 (Homo sapiens) | rule met
O=C1[C@H]2[C@H]3[C@H](O)[C@H](O)CC(=NOC[C@@H](O)COCc4ccco4)[C@@H]3CC[C@H]2C(=O)N1Cc1ccc2c(c1)OCO2 | Calmodulin-1 (Homo sapiens) | rule not met
CC(=O)OC[C@H]1O[C@H](CC=NOC(C)CN2CCCCc3nc(C)c(C)cc32)C=C[C@@H]1OC(C)=O (stereo not given in full) | Calmodulin-1 (Homo sapiens) | rule met
CCOC(=O)[C@H](Cc1ccccc1)NC(=O)CCC1CC(OC(=O)NCc2cccc3ccccc23)CC2(CCCC(COC(=O)NCc3ccc4c(c3)OCO4)O2)O1 (stereo not given in full) | Calmodulin-1 (Homo sapiens) | rule met
C=CC[C@@H]1C=C[C@H](ON=C[C@@H](NS(=O)(=O)c2ccc(C)cc2)[C@H](C)C=CCC(=O)OC)[C@@H](CO)O1 | Calmodulin-1 (Homo sapiens) | rule not met
CCCCOC(OCCCC)C(O)CSc1ccc2ccccc2c1 (stereo not given) | Calmodulin-1 (Homo sapiens) | rule met
CC(C)=CCCC(C)=CCON=C1C[C@@H](O)[C@@H](O)[C@@H]2[C@@H]3C(=O)N(C4CCCCC4)C(=O)[C@@H]3CC[C@H]12 | Calmodulin-1 (Homo sapiens) | rule not met
COc1cccc([C@H]2Oc3ccc(OC)cc3C(=NO[C@@H](C)c3cc(-c4c(C)cc(C)cc4C)no3)[C@@H]2O)c1 | Calmodulin-1 (Homo sapiens) | rule met
COC(=O)[C@@H]1CC[C@H](C)[C@@H](c2ccc(Br)cc2)N1C(=O)C(F)(F)F | Calmodulin-1 (Homo sapiens) | rule met
C[C@@H](c1ccccc1)N1C(=O)[C@H]2[C@H]3[C@H](O)[C@H](O)CC(=NOC[C@@H](O)COCc4ccco4)[C@H]3CC[C@H]2C1=O | Calmodulin-1 (Homo sapiens) | rule not met

----------
assay target: Left-right determination factor 2 (Homo sapiens)
assay: LEFTY2 binders on small-molecule microarrays, primary screen, biochemical, small-molecule microarray, 635 nm fluorescence scan (AID 1110)
test context: LEFTY2 binding, higher = more signal
Values of composite z-score greater than or equal to 0.6 map to MET; values below map to NOT MET.

molecule | assigned category
CC(=O)OC[C@H]1O[C@H](CC=NOCC[C@@H]2C=C[C@H](OC(C)=O)[C@@H](COC(C)=O)O2)C=C[C@@H]1OC(C)=O | MET
CON=C(C)CCN1CCCCc2nc(C)c(C)cc21 | MET
O=C1[C@H]2[C@H]3[C@H](O)[C@H](O)CC(=NO[C@@H]4O[C@H](CO)[C@@H](O)[C@H](O)[C@H]4O)[C@@H]3CC[C@H]2C(=O)N1C[C@@H]1CCCO1 | NOT MET
CC(CCC(=O)OC[C@H]1O[C@H](C#Cc2ccccc2)C=C[C@@H]1Oc1ccc(C)cc1)=NOC[C@@H](C)[C@H](OCc1ccccc1)C(C)C | NOT MET
CCOC(=O)CCN1C(=O)[C@H]2[C@H]3[C@H](O)[C@H](O)CC(=NOCC=C(C)CCC=C(C)C)[C@@H]3CC[C@H]2C1=O | MET
C#CCCCON=C1C[C@@H](O)[C@@H](O)[C@@H]2[C@@H]3C(=O)N(C[C@@H]4CCCO4)C(=O)[C@@H]3CC[C@H]12 | NOT MET
CCOC(=O)[C@H](Cc1ccccc1)NC(=O)CCC1CC(OC(=O)NCc2ccc3c(c2)OCO3)CC2(CCCC(COC(=O)NCCc3ccc(Cl)cc3)O2)O1 (some centres not stated) | MET

----------
assay target: Dickkopf-related protein 1 (Homo sapiens)
assay: DKK1 binders on small-molecule microarrays, primary screen, biochemical, small-molecule microarray, 635 nm fluorescence scan (AID 1106);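 also: score merges emission near 667 nm with signal to noise over three replicate slides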
test context: DKK1 binding, higher = more signal
Values of composite z-score greater than or equal to 0.6 map to true (1); values below map to false (0).

compound | assigned category
CCOC(=O)[C@H](Cc1ccccc1)NC(=O)CCC1CC(OC(=O)NCc2cccc3ccccc23)CC2(CCCC(COC(=O)NCc3ccc4c(c3)OCO4)O2)O1 (some centres undefined) | false (0)
CC(C)CON=C1C[C@@H](O)[C@@H](O)[C@@H]2[C@@H]3C(=O)N(Cc4ccccc4)C(=O)[C@@H]3CC[C@H]12 | false (0)
CCc1cc2c(nc1CC)CCN(CCC(C)=NOC(C)CN1CCCCc3nc(C)c(C)cc31)C2 (centres undefined) | true (1)
COC(=O)[C@H](C)NC(=O)CCC1CC(OC(=O)NCCc2ccc(F)cc2)CC2(CCCC(COC(=O)NCCc3ccccc3OC)O2)O1 (some centres undefined) | true (1)
COc1ccc(O[C@H]2C=C[C@@H](C#Cc3ccccc3)O[C@@H]2CO)cc1 | false (0)
CC(C)=NOC(C)CN1CCCc2nc(C)c(C)cc21 (centres undefined) | true (1)
CCOC(=O)[C@H](CC(C)C)NC(=O)CCC1CC(OC(=O)NCCc2ccc(F)cc2)CC2(CCCC(COC(=O)NCc3cccc4ccccc34)O2)O1 (some centres undefined) | true (1)
COC(=O)CC=C[C@@H](C)[C@@H](C=NOC(C)CN1CCCCc2nc(C)c(C)cc21)NS(=O)(=O)c1ccc(C)cc1 (some centres undefined) | true (1)
COc1ccc(O[C@H]2C=C[C@@H](c3ccccc3)O[C@@H]2CO)cc1 | false (0)

----------
assay: small-molecule microarray binders of probe aWnt5a, primary screen, biochemical, biotinylated probe, 635/667 nm fluorescence (AID 1113);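 also: score merges 667 nm fluorescence intensity with signal-to-noise per printed feature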
test context: higher = more signal
Reported composite z-score values are given for each entry in this list.
test readout: composite z-score

molecule | reported result
COC(=O)CC=C1c2ccccc2[C@H](OC)[C@H]1C | -0.0981
CC(C)CON=C1[C@H]2CCn3c(=O)n(C)c(=O)n3[C@H]2[C@H](O)[C@@H]2O[C@H]12 | -0.127
CC(C)=CCCC(C)=CCON=C1C[C@@H](O)[C@@H](O)[C@@H]2[C@@H]3C(=O)N(Cc4ccc5c(c4)OCO5)C(=O)[C@@H]3CC[C@H]12 | -0.0346
COC(=O)[C@H](C)NC(=O)CCC1CC(OC(=O)NCc2cccc3ccccc23)CC2(CCCC(COC(=O)NCCC(C)C)O2)O1 (stereo partly drawn) | -0.109
COCOc1ccc(Br)cc1C(=O)C=Cc1ccc2c(c1)OCO2 | -0.0721
CCN1C(=O)[C@H]2[C@H]3[C@H](O)[C@H](O)CC(=NO[C@@H]4O[C@H](CO)[C@@H](O)[C@H](O)[C@H]4O)[C@H]3CC[C@H]2C1=O | -0.0529
COc1ccc(COC(=O)NN=C2C[C@@H](O)[C@@H](O)[C@@H]3[C@@H]4C(=O)N(Cc5ccccc5)C(=O)[C@@H]4CC[C@@H]23)cc1 | -0.128
CC(=O)OC[C@H]1O[C@H](C#CCCc2ccccc2)C=C[C@@H]1OC(C)=O | -0.0721
